Tested on: MDAH-2774 cells
protocol: CV proliferation assay, MDAH-2774 ovarian cancer cells
Assay type: cell-based
conditions: MDAH-2774 (PKCß1 high), 1000 cells/well; read-out: Approximate IC50
pIC50: −log10 of the molar value.
measured attribute: pIC50

Entry "CC/C(=C(\c1ccc(O)cc1)c1ccc(OCCN(C)C(=O)COCCOCCNC(=O)c2ccc3c(c2)CN([C@H]2CCC(=O)NC2=O)C3=O)cc1)c1ccccc1" : reported pIC50 = ?
< 5.00

====

Tested on: KURAMOCHI cells
protocol: CV proliferation assay, KURAMOCHI ovarian cancer cells
Assay type: cell-based
conditions: KURAMOSHI (PKCß1 low), 1000 cells/well; read-out: Approximate IC50
pIC50: −log10 of the molar value.
measured attribute: pIC50

What value of pIC50 has been recorded for this entry: "CC/C(=C(\c1ccc(O)cc1)c1ccc(OCCN(C)C(=O)COCCOCCNC(=O)c2ccc3c(c2)CN([C@H]2CCC(=O)NC2=O)C3=O)cc1)c1ccccc1"
< 5.00
